biological target: mouse EP4 (Mus musculus)
Sequence (P32240 whole entry): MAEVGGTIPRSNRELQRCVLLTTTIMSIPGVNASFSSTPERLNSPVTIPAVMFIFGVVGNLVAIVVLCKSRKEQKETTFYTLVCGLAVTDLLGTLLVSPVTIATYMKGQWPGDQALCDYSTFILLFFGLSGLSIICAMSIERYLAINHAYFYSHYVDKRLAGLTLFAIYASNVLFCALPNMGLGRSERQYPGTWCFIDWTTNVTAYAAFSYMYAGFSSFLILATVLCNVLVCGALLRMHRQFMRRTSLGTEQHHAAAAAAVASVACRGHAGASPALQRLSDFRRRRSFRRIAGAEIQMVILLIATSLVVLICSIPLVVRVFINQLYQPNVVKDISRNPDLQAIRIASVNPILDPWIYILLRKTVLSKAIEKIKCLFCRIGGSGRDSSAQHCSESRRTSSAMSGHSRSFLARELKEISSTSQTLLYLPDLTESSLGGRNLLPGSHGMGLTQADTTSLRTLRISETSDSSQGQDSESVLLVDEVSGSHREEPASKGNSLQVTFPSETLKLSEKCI
Strictly below 4 µM in Ki: 1. Otherwise: -1.

1. CCCCCC[C@@H](/C=C/[C@H]1[C@H](OC)CC(=O)[C@@H]1C/C=C\CCCC(=O)O)OC [1(e)] | 1
2. CCCCC[C@@H](/C=C/[C@H]1[C@H](OCC)CC(=O)[C@@H]1C/C=C\CCCC(=O)O)OCC | -1
3. CCCCC(C)(C)[C@@H](/C=C/[C@H]1[C@H](OC)CC(=O)[C@@H]1C/C=C\CCCC(=O)O)OC | 1
4. CCCCC[C@@H](/C=C/[C@H]1[C@H](OC)CC(=O)[C@@H]1CCCCCCC(=O)O)OC | 1
5. CCCCC[C@@H](/C=C/[C@H]1[C@H](OC)CC(=O)[C@@H]1C/C=C\CCCC(=O)O)OC | -1
